TEST_DETAILS: protein stability index of a GFP-peptide fusion (GPS, HEK-293T) (PSI 1-6); higher = more stable;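 further: 24-mer peptide tiles fused after GFP, lentivirally expressed, FACS-sorted into six equal bins by GFP/DsRed ratio, decoded by Illumina sequencing, PSI is the read-weighted mean bin number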
CONDITION_DESCRIPTION: treatment: MLN4924 1 uM, 8 h; c terminus: a fixed tail appended
Each record here notes measured protein stability index.
RECORDED_METRIC: protein stability index

• LLEGQDAKMAGIGIREASSGGGGS [KRT15] = 4.87
• LAESEFESAAFSQGSRSGVSGGSR [PHTF1] = 4.93
• HSKLLVSGFWGVARHFNYVGDLMG [DHCR7] = 2.33
• SSSSKLSRSPLKIVKKPKSMQCKV [EPB41L3] = 3.41
• RRDYLLLVMEGTDDGRLLEYDTVT [APMAP] = 2.72
• TRNVQSVSIIDTELKVKDSQPIDL [TRIP13] = 4.55
• QPVSLRRRKREVLVEDMVSQEEAQ [ZNF24] = 5.34

* * *

TEST_DETAILS: protein stability index of a GFP-peptide fusion (GPS, HEK-293T) (PSI 1-6); higher = more stable
CONDITION_DESCRIPTION: treatment: DMSO; c terminus: a fixed tail appended
Classification field: enter T for protein stability index values not below 3, F for values below it.

• ISSMADFWDFAQGPLLDSLYWTKW [PKD2L1] = F
• TPLDAFRMTSAAHYYPKLMSIMGN [GFOD1] = F
• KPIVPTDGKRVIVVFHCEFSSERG [CDC25A] = F
• VPQPARMPYISDKHPRQTLEVINL [KLHL20] = F
• VSRGGHGQQDLFRVLKAYTLYRPE [TBC1D10A] = F
• NHLPPQTKRSSRNPVFQDSWDTES [FAM104A] = T
• LDPAYTTLEFENVQVLTMGNDTSP [HNF4A] = T

* * *

TEST_DETAILS: protein stability index of a GFP-peptide fusion (GPS, HEK-293T) (PSI 1-6); higher = more stable
CONDITION_DESCRIPTION: treatment: MLN4924 1 uM, 8 h; c terminus: a fixed tail appended
Classification field: enter 1 (yes) for protein stability index values not below 3, 0 (no) for values below it.

- SGPRQLLTLYNPTGTALRFRVLCT [MOSPD3]: 0 (no)
- LFFIDGSTPSDNIVRRFLNICENT [CDC14A]: 0 (no)
- LLLHRGAGKEAMTSDGYTALHLAA [RIPK4]: 0 (no)
- SEGKVLTLAALLLNRSESDIRYLL [FEM1B]: 0 (no)
- VVCQPNEFIMPDSAVVGDVLVLTK [SEPHS2]: 0 (no)
- VGEPEFHYIAGAHGNEVLGRELLL [CPXM2]: 1 (yes)
- FSTILHLLLGSPHPAATALHAELC [LPCAT4]: 0 (no)
- RSRKVSCPLTRSNGDLSRSLSPSP [FCHO1]: 1 (yes)
- YSQDPVYANGGLNYSYRGYGALSS [NOL4L]: 0 (no)
- NYCPQQTKITSAFKYINTVISCTI [EDNRA]: 0 (no)
- ISSMADFWDFAQGPLLDSLYWTKW [PKD2L1]: 0 (no)
- GQVLHFENVKDVPFGFQTVTSDVN [SERPINB5]: 1 (yes)
- GELRRRPGDMKTKMELLILETQAQ [CPOX]: 1 (yes)
